- assayed.target: HiBit-KRAS^G12C (Homo sapiens, UniProt P01116, G12C)
- Sequence (P01116 1-186 isoform P01116-2 G12C limits assumed): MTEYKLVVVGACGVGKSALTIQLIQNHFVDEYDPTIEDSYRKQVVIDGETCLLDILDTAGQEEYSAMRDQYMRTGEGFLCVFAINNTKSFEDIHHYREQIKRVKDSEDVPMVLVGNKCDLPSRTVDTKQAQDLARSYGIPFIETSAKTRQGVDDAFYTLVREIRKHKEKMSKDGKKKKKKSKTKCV
- method.summary: HiBit degradation assay in SW1573 HiBit-KRas^G12C cells
- Type: cell-based
- Parameters: expressed in transfected cells; host or cells: SW1573 (clone E6), modified pcDNA3.1 vector, TK promoter
- condition.label: SW1573, SW1573 HiBit-KRas^G12C, 0.1% DMSO, 24 hours; read-out: KRas^G12C-HiBit (SW1573; 0.1% DMSO) Dmax**
assay.metric: Dmax

[[record]]
compound = "C=CC(=O)N1CCN(c2nc(O[C@H](C)CN3CCC(OCCOc4cc(-c5scnc5C)ccc4CNC(=O)[C@@H]4C[C@@H](O)CN4C(=O)[C@H](c4cc(C)no4)C(C)C)CC3)nc3c(F)c(-c4cc(O)cc5ccccc45)c(Cl)cc23)CC1"
assayed_target = "HiBit-KRAS^G12C (Homo sapiens, UniProt P01116, G12C)"
endpoint_result = "< 35%"

[[record]]
compound = "C=C(F)C(=O)N1CCN(c2nc(O[C@H](C)CN3CCC(COCC(=O)N[C@H](C(=O)N4C[C@H](O)C[C@H]4C(=O)N[C@@H](C)c4ccc(-c5scnc5C)cc4)C(C)(C)C)CC3)nc3c(F)c(-c4cc(O)cc5ccccc45)c(Cl)cc23)CC1"
assayed_target = "HiBit-KRAS^G12C (Homo sapiens, UniProt P01116, G12C)"
endpoint_result = "< 35%"

[[record]]
compound = "C=CC(=O)N1CCN(c2nc(O[C@H](C)CN3CCC(CCOCC(=O)N[C@H](C(=O)N4C[C@H](O)C[C@H]4C(=O)N[C@@H](C)c4ccc(-c5scnc5C)cc4)C(C)(C)C)CC3)nc3c(F)c(-c4cc(O)cc5ccccc45)c(Cl)cc23)CC1"
assayed_target = "HiBit-KRAS^G12C (Homo sapiens, UniProt P01116, G12C)"
endpoint_result = "35 to 70%"

[[record]]
compound = "C=CC(=O)N1CCN(c2nc(OCCN3CCC(OCCOc4cc([C@H](C(=O)N5C[C@H](O)C[C@H]5C(=O)N[C@@H](C)c5ccc(-c6scnc6C)cc5)C(C)C)on4)CC3)nc3c(F)c(-c4cc(O)cc5ccccc45)c(Cl)cc23)C[C@@H]1CC#N (single isomer, unassigned)"
assayed_target = "HiBit-KRAS^G12C (Homo sapiens, UniProt P01116, G12C)"
endpoint_result = "> 70%"

[[record]]
compound = "C=CC(=O)N1CCN(c2nc(OCCN3CCC(COCC(=O)N[C@H](C(=O)N4C[C@H](O)C[C@H]4C(=O)N[C@@H](C)c4ccc(-c5scnc5C)cc4)C(C)(C)C)CC3)nc3c(F)c(-c4cc(O)cc5ccccc45)c(Cl)cc23)C[C@@H]1CC#N"
assayed_target = "HiBit-KRAS^G12C (Homo sapiens, UniProt P01116, G12C)"
endpoint_result = "35 to 70%"

[[record]]
compound = "C=CC(=O)N1CCN(c2nc(OCCN3CCC(OCCOCC(=O)N[C@H](C(=O)N4C[C@H](O)C[C@H]4C(=O)N[C@@H](C)c4ccc(-c5scnc5C)cc4)C(C)(C)C)CC3)nc3c(F)c(-c4cc(O)cc5ccccc45)c(Cl)cc23)C[C@@H]1CC#N"
assayed_target = "HiBit-KRAS^G12C (Homo sapiens, UniProt P01116, G12C)"
endpoint_result = "35 to 70%"

[[record]]
compound = "C=CC(=O)N1CCN(c2nc(O[C@H](C)CN3CCC(C(=O)N[C@H](C(=O)N4C[C@H](O)C[C@H]4C(=O)N[C@@H](C)c4ccc(-c5scnc5C)cc4)C(C)(C)C)CC3)nc3c(F)c(-c4cc(O)cc5ccccc45)c(Cl)cc23)CC1"
assayed_target = "HiBit-KRAS^G12C (Homo sapiens, UniProt P01116, G12C)"
endpoint_result = "< 35%"

[[record]]
compound = "C=CC(=O)N1CCN(c2nc(O[C@@H](C)CN3CCC(OCCOCC(=O)N[C@H](C(=O)N4C[C@H](O)C[C@H]4C(=O)N[C@@H](C)c4ccc(-c5scnc5C)cc4)C(C)(C)C)CC3)nc3c(F)c(-c4cc(O)cc5ccccc45)c(Cl)cc23)CC1"
assayed_target = "HiBit-KRAS^G12C (Homo sapiens, UniProt P01116, G12C)"
endpoint_result = "35 to 70%"

